- ASSAY_TARGET: T1, Taq DNA polymerase (Thermus aquaticus, UniProt P19821 1-832)
- T1 construct: also called Taq enzyme; Taq DNA enzyme
- T1 sequence (P19821 whole entry): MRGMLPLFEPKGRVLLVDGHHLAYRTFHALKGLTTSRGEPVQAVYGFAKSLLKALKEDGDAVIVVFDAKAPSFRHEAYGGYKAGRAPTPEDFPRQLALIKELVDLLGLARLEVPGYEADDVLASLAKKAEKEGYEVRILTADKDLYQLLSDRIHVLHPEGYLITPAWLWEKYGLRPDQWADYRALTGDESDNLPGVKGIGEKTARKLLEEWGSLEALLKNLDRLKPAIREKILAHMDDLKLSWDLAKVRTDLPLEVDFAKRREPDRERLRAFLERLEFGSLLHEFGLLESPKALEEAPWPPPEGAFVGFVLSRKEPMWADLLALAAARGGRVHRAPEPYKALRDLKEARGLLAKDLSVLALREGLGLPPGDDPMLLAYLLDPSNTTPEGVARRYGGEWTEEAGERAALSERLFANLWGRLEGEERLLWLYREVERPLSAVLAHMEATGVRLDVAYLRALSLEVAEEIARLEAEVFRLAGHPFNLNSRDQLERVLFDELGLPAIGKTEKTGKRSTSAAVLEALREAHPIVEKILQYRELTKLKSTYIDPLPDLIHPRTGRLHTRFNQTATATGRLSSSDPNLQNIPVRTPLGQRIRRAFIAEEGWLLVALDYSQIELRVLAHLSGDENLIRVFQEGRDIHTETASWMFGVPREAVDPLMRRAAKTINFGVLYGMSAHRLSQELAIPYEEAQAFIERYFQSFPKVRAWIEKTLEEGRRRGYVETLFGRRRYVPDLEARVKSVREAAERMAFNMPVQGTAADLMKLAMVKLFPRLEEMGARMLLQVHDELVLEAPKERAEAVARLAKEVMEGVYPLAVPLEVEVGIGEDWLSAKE
- METHOD: AMC sensor, antibody immobilised

{"BINDER": "WT 1-4 (antibody, V domains shown, WT background; CDRs built) VH: QVQLQQPGAELVKPGASVRLSCQTSVNTFSTYYLYWVKQRPGEGLEWIGGINPTSGGPVFDEKFKSKATLTVDTSSSTAYMQLSSLTSVDSAVYYCTRSVVRRGYYPDYWGQGTALTVSS VL: DIQMTQTTSSLSASLGDRVTISCRGSQDIQNYINWYQQKPDGTIKLLIYFTSRLHSGVPSRFSGSGSGTDYSLTIANLEQEDIATYFCQQDDTVPITWGAGTKVELKR", "koff [s⁻¹]": 0.000362}
{"BINDER": "WT 1-1 (antibody, V domains shown, WT background; CDRs built) VH: QVQLQQPGAELVKPGASVRLSCQTSVDTFTTYYLYWVKQRPGEGLEWIGGINPTSNPVFDEKFKSKATLTVDTSSSTAYMQLSSLTSVDSAVYYCTRSIVRRGYYPDYWGQGTALTVSS VL: DIQMTQTTSSLSASLGDRVTISCRGSQDINNYVNWYQQKPDGTIKLLIYFTSRLQSGVPSRFSGSGSGTDYSLTIANLEQEDIATYFCQQDDTIPITWGAGTKVELKR", "koff [s⁻¹]": 0.000273}
{"BINDER": "WT 1-3 (antibody, V domains shown, WT background; CDRs built) VH: QVQLQQPGAELVKPGASVRLSCQTSVETFTTYYLYWVKQRPGEGLEWIGGVNPTSGGPVFDEKFKSKATLTVDTSSSTAYMQLSSLTSVDSAVYYCTRSVLRRGYYPDYWGQGTALTVSS VL: DIQMTQTTSSLSASLGDRVTISCRGSQDINNYLNWYQQKPDGTIKLLIYFTSRLHSGIPSRFSGSGSGTDYSLTIANLEQEDIATYFCQQDDTVPVTWGAGTKVELKR", "koff [s⁻¹]": 0.00011}
